Biological target: Human Polymorphonuclear Leukocyte Elastase (Homo sapiens)
Construct: Crude extract of human polymorphonuclear leukocytes (PMN) containing elastase activity; from tissue; host or cells: human polymorphonuclear leukocytes (crude extract)
Assay: Enzyme assay for inhibition of human polymorphonuclear leukocyte elastase via hydrolysis of Boc-AAPAN or Boc-AAPVN
Type: biochemical
Conditions: pH 7.5, second order rate constant for inactivation of the enzyme, expressed to the nearest thousand, read-out: Kobs/[I]
Give kinact/KI for every item shown.
Give bare numbers, in M⁻¹ s⁻¹.

CCC[C@@H](NC(=O)N1C(=O)C(CC)(CC)[C@@H]1Oc1ccc(C(=O)N(C)CCN2CCC(O)C2)cc1)c1ccc(C)cc1 (some centres unmarked) = 960000
CCCC(NC(=O)N1C(=O)C(CC)(CC)C1Oc1ccc(C(=O)OCCN(C)C)cc1)c1ccc(C)cc1 (centres unmarked) = 1.57e+06
CCCCNC(=O)c1ccc(OC2N(C(=O)NC(CCC)c3ccc(C)cc3)C(=O)C2(CC)CC)cc1 (centres unmarked) = 2.46e+06
CCC[C@@H](NC(=O)N1C(=O)C(CC)(CC)[C@@H]1Oc1ccc(C(=O)N(C)CCCN(C)Cc2ccccc2)cc1)c1ccc(C)cc1 = 1.29e+06

As a next step, examine the compound that follows.
Give a short answer stating reported kinact/KI for CCC[C@@H](NC(=O)N1C(=O)C(CC)(CC)[C@@H]1Oc1cc(C)c(C(=O)N(C)CCN(CC)CC)c(C)c1)c1ccc(C)cc1 .
377000

###

Give kinact/KI for every item shown.
Biological target: Human Polymorphonuclear Leukocyte Elastase (Homo sapiens, UniProt P08246)
Construct: Crude extract of human polymorphonuclear leukocytes (PMN) containing elastase activity; from tissue; host or cells: human polymorphonuclear leukocytes (crude extract)
Sequence (P08246 30-267): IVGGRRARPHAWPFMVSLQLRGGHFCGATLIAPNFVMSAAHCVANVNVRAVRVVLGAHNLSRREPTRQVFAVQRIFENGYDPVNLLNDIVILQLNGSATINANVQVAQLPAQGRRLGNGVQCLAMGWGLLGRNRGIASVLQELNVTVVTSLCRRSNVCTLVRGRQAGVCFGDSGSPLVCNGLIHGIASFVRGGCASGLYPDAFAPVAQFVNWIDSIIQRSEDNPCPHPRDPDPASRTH
Assay: Enzyme assay for inhibition of human polymorphonuclear leukocyte elastase via hydrolysis of Boc-AAPAN or Boc-AAPVN
Assay type: biochemical
Conditions: pH 7.5, second order rate constant for inactivation of the enzyme, expressed to the nearest thousand, read-out: Kobs/[I]
One number for each entry, in M⁻¹ s⁻¹.

CCC[C@@H](NC(=O)N1C(=O)C(CC)(CC)[C@@H]1Oc1ccc(CC(=O)NCC(C)N(C)C)cc1)c1ccc(C)cc1 (some centres unmarked) [Compound 57] = 1.34e+06
CCC[C@@H](NC(=O)N1C(=O)C(CC)(CC)[C@@H]1Oc1ccc(C(=O)N(C)CCN(C)Cc2cccc(F)c2)cc1)c1ccc(C)cc1 [Compound 203] = 1.26e+06

Report kinact/KI for each item below.
1. CCC[C@@H](NC(=O)N1C(=O)C(CC)(CC)[C@@H]1Oc1ccc(C(=O)N(C)CC(O)C(O)C(O)C(O)CO)cc1)c1ccc(C)cc1 (some centres unmarked) [Compound 156]
2. CCC[C@@H](NC(=O)N1C(=O)C(CC)(CC)[C@@H]1Oc1ccc(CC(=O)N(C)CCN(C)C)cc1)c1ccc2c(c1)OCO2 [Compound 259]

1: 1.2e+06; 2: 2.52e+06

Give a short answer stating reported kinact/KI for CCC[C@@H](NC(=O)N1C(=O)C(CC)(CC)[C@@H]1Oc1ccc(CC(=O)N(C)CCN(C)C)cc1)c1ccc(C)cc1 [Compound 44] .
1.24e+06

###

Biological target: Human Polymorphonuclear Leukocyte Elastase (Homo sapiens, UniProt P08246)
Construct: Crude extract of human polymorphonuclear leukocytes (PMN) containing elastase activity; from tissue; host or cells: human polymorphonuclear leukocytes (crude extract)
Experiment: Enzyme assay for inhibition of human polymorphonuclear leukocyte elastase via hydrolysis of Boc-AAPAN or Boc-AAPVN
Type: biochemical
Conditions: pH 7.5, second order rate constant for inactivation of the enzyme, expressed to the nearest thousand, read-out: Kobs/[I]
Give kinact/KI for every item shown.
One number for each entry, in M⁻¹ s⁻¹.

Report kinact/KI for each item below.
1. CCC[C@@H](NC(=O)N1C(=O)C(CC)(CC)[C@@H]1Oc1ccc(CC(=O)N2CCOCC2)cc1)c1ccc(C)cc1 [Compound 42]
2. CCC[C@@H](NC(=O)N1C(=O)C(CC)(CC)[C@@H]1Oc1ccc(C(=O)N2CCC[C@@H]2CN2CCCC2)cc1)c1ccc(C)cc1 [Compound 154]
3. CCC[C@@H](NC(=O)N1C(=O)C(CC)(CC)[C@@H]1Oc1ccc(C(=O)NCCc2nccn2Cc2ccccc2)cc1)c1ccc(C)cc1 [Compound 114]
4. CCC[C@@H](NC(=O)N1C(=O)C(CC)(CC)[C@@H]1Oc1ccc(C(=O)NCCn2cncn2)cc1)c1ccc(C)cc1 [Compound 96]

["1.09e+06", "1.67e+06", "3.85e+06", "1.4e+06"]

Report kinact/KI for each item below.
1. CCC[C@@H](NC(=O)N1C(=O)C(CC)(CC)[C@@H]1Oc1ccc(CC(=O)OCCN(C)C)cc1)c1ccc(C)cc1 [Compound 32]
2. CCC[C@@H](NC(=O)N1C(=O)C(CC)(CC)[C@@H]1Oc1ccc(C(=O)Nc2cccc(N(C)C)c2)cc1)c1ccc(C)cc1 [Compound 111]
3. CCC[C@@H](NC(=O)N1C(=O)C(CC)(CC)[C@@H]1Oc1ccc(C(=O)N(C)CCN2CCOCC2)cc1)c1ccc(C)cc1 [Compound 79]
4. CCC[C@@H](NC(=O)N1C(=O)C(CC)(CC)[C@@H]1Oc1ccc(CC(=O)N(CCC)CCC)cc1)c1ccc(C)c(C(=O)N2CCOCC2)c1 [Compound 271]

1: 1.99e+06; 2: 2.29e+06; 3: 2.12e+06; 4: 826000

Report kinact/KI for each item below.
1. CCC[C@@H](NC(=O)N1C(=O)C(CC)(CC)[C@@H]1Oc1ccc(C(=O)N(C)C2CN3CCC2CC3)cc1)c1ccc(C)cc1 (some centres unmarked) [Compound 116]
2. CCC[C@@H](NC(=O)N1C(=O)C(CC)(CC)[C@@H]1Oc1ccc(C(=O)N(CCN(C)C)Cc2ccccc2)cc1)c1ccc(C)cc1 [Compound 137]
3. CCC[C@@H](NC(=O)N1C(=O)C(CC)(CC)[C@@H]1Oc1ccc(C(=O)N(C)CCN2CCNCC2)cc1)c1ccc(C)cc1 [Compound 151]

["3.48e+06", "1.38e+06", "1.19e+06"]
